src = patent US11584775B2

Assign IC50 to each entry below.
- Tested on: hIL17
- test: IL-17 release from differentiated primary human T-cells (IL-17A HTRF assay)
- Format: cell-based
- study-conditions: inhibition of IL-17A levels; primary human CD4+ T cells differentiated into Th17 cells, 46-hour incubation
Numbers only, in nM.

Worked cases, IC50 given:
Input line: Tell us which IC50 value is on record for "COC(=O)[C@]12CCC(C)(C)C[C@H]1[C@H]1C(=O)C=C3[C@@]4(C)C=C(C#N)C(=O)[C@@](C)(NC(C)=O)[C@@H]4CC[C@@]3(C)[C@]1(C)CC2"
Output line: 81

Input line: // fetch IC50 given entry "CC1(C)CC[C@]2(C(=O)NCC(F)(F)F)CC[C@]3(C)[C@H](C(=O)C=C4[C@@]5(C)C=C(C#N)C(=O)[C@@](C)(O)[C@@H]5CC[C@]43C)[C@@H]2C1"
Output line: 37

Further cases:
Input line: Please list IC50 recorded for the compound "COC(=O)[C@]12CCC(C)(C)C[C@H]1[C@H]1C(=O)C=C3[C@@]4(C)C=C(C#N)C(=O)[C@@](C)(COC(C)=O)[C@@H]4CC[C@@]3(C)[C@]1(C)CC2"
Output line: 24

----------
- Tested on: hIL17
- test: IL-17 release from differentiated primary human T-cells (IL-17A HTRF assay)
- Type: cell-based
- study-conditions: inhibition of IL-17A levels; primary human CD4+ T cells differentiated into Th17 cells, 46-hour incubation
Classify by IC50. Ranges: low bin = under 30 nM, mid bin = from 30 nM up to 80 nM, high bin = 80 nM and over

Illustrative cases are given below, each with its answer.
Input line: Hi there! Could you help me figure out the category for CC(=O)OC[C@]1(C)C(=O)C(C#N)=C[C@]2(C)C3=CC(=O)[C@]45OC(=O)[C@@]6(CCC(C)(C)C[C@H]64)CC[C@@]5(C)[C@]3(C)CC[C@H]21 [Compound T32] please?
Output line: low bin

Input line: Bin this entry: COC(=O)[C@]12CCC(C)(C)C[C@H]1[C@H]1C(=O)C=C3[C@@]4(C)C=C(C#N)C(=O)[C@@](C)(CCO[Si](C)(C)C(C)(C)C)[C@@H]4CC[C@@]3(C)[C@]1(C)CC2 [Compound T18]
Output line: low bin

Input line: Which IC50 category applies to CCNC(=O)[C@]12CCC(C)(C)C[C@H]1[C@H]1C(=O)C=C3[C@@]4(C)C=C(C#N)C(=O)[C@@](C)(O)[C@@H]4CC[C@@]3(C)[C@]1(C)CC2 [Compound T26] here?
Output line: high bin

Input line: Class (by measured IC50) for COC(=O)C[C@]1(C)C(=O)C(C#N)=C[C@]2(C)C3=CC(=O)[C@@H]4[C@@H]5CC(C)(C)CC[C@]5(C(=O)OC)CC[C@@]4(C)[C@]3(C)CC[C@H]21 [Compound T21]
Output line: mid bin

More entries:
Input line: Assign a category based on measured IC50 for CC1(C)CC[C@@]23CC[C@@]4(C)[C@]5(C)CC[C@@H]6[C@@](C)(C5=CC(=O)[C@]4(OC2=O)[C@@H]3C1)[C@H]1O[C@@]1(C#N)C(=O)[C@@]6(C)O [Compound T50] and give only the class name.
Output line: low bin

Input line: Note: place this compound into its band. Item: CC1(C)CC[C@]2(NC(=O)C(C)(F)F)CC[C@]3(C)[C@H](C(=O)C=C4[C@@]5(C)[C@H]6O[C@@]6(C#N)C(=O)[C@@](C)(O)[C@@H]5CC[C@]43C)[C@@H]2C1 [Compound T51]
Output line: high bin

----------
Please provide measured IC50 for the entries that follow.
- study-system: human RORγ (Homo sapiens)
- Sequence (P51449 269-508 limits assumed): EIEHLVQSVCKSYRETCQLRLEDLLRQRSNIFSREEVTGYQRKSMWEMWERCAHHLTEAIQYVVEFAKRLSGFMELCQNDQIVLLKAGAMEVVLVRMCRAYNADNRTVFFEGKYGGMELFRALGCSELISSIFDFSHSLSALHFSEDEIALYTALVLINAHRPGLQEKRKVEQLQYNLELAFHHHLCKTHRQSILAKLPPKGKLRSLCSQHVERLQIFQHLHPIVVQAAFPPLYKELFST
- test: RORγ assay (GAL4-RORγ hybrid luciferase reporter, inverse-agonist activity)
- study-conditions: GAL4-RORγ hybrid reporter cells, 23 hours
Param answer (str): number followed by unit.

Input line: Look up and report IC50, with human RORγ (Homo sapiens) as system, for "C[C@H](O)[C@]1(C)C(=O)C(C#N)=C[C@]2(C)C3=CC(=O)[C@]45OC(=O)[C@@]6(CCC(C)(C)C[C@H]64)CC[C@@]5(C)[C@]3(C)CC[C@@H]12"
Output line: 162 nM

Input line: Recall the reported IC50 of "CC(=O)OC[C@]1(C)C(=O)C(C#N)=C[C@]2(C)C3=CC(=O)[C@@H]4[C@@H]5CC(C)(C)CC[C@]5(c5nnc(C)o5)CC[C@@]4(C)[C@]3(C)CC[C@H]21" on human RORγ (Homo sapiens) and write it down.
Output line: 146 nM

Input line: Quote human RORγ (Homo sapiens) IC50 for entry COC(=O)[C@]12CCC(C)(C)C[C@H]1[C@@]1(O)C(=O)C=C3[C@@]4(C)C=C(C#N)C(=O)C(C)(C)[C@@H]4CC[C@@]3(C)[C@]1(C)CC2 [Comparison Compound #5, reference compound] .
Output line: 135 nM

Go through the items and report each one's IC50.
1. COC[C@]1(C)C(=O)C(C#N)=C[C@]2(C)C3=CC(=O)[C@@H]4[C@@H]5CC(C)(C)CC[C@]5(C(=O)OC)CC[C@@]4(C)[C@]3(C)CC[C@H]21
2. COC(=O)[C@]12CCC(C)(C)C[C@H]1[C@H]1C(=O)C=C3[C@@]4(C)C=C(C#N)C(=O)[C@@](C)(CCO[Si](C)(C)C(C)(C)C)[C@@H]4CC[C@@]3(C)[C@]1(C)CC2

Output line:
223 nM
583 nM

Hello, I would appreciate it if you could give IC50 for each entry below.
1. COC(=O)[C@]12CCC(C)(C)C[C@H]1[C@H]1C(=O)C=C3[C@@]4(C)C=C(C#N)C(=O)[C@@](C)(C(=O)OC)[C@@H]4CC[C@@]3(C)[C@]1(C)CC2
2. COC(=O)[C@]12CCC(C)(C)C[C@H]1[C@@]1(O)C(=O)C=C3[C@@]4(C)C=C(C#N)C(=O)[C@@](C)(O)[C@@H]4CC[C@@]3(C)[C@]1(C)CC2
3. COCOC[C@]1(C)C(=O)C(C#N)=C[C@]2(C)C3=CC(=O)[C@@H]4[C@@H]5CC(C)(C)CC[C@]5(C(=O)OC)CC[C@@]4(C)[C@]3(C)CC[C@H]21
4. CC1(C)CC[C@@]23CC[C@@]4(C)[C@]5(C)CC[C@@H]6[C@](C)(C=C(C#N)C(=O)[C@@]6(C)CO)C5=CC(=O)[C@]4(OC2=O)[C@@H]3C1
5. Cc1nnc([C@]23CCC(C)(C)C[C@H]2[C@H]2C(=O)C=C4[C@@]5(C)C=C(C#N)C(=O)[C@@](C)(CO)[C@@H]5CC[C@@]4(C)[C@]2(C)CC3)o1
6. COC(=O)[C@]12CCC(C)(C)C[C@H]1[C@H]1C(=O)C=C3[C@@]4(C)C=C(C#N)C(=O)[C@@](C)(COC(=O)c5ccccc5)[C@@H]4CC[C@@]3(C)[C@]1(C)CC2

Output line:
["216 nM", "177 nM", "251 nM", "177 nM", "389 nM", "361 nM"]

----------
- study-system: human RORγ (Homo sapiens, UniProt P51449)
- Sequence (P51449 269-508 limits assumed): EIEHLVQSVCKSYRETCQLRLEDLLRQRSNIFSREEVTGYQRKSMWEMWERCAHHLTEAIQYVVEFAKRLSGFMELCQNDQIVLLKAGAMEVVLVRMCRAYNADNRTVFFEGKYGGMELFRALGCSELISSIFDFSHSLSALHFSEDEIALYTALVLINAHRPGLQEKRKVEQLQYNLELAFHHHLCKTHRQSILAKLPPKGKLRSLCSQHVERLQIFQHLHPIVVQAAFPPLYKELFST
- test: RORγ assay (GAL4-RORγ hybrid luciferase reporter, inverse-agonist activity)
- study-conditions: GAL4-RORγ hybrid reporter cells, 23 hours
What IC50 was measured for each of the following?

Example compounds with recorded IC50:
Input line: Give recorded IC50. "Cc1noc([C@]23CCC(C)(C)C[C@H]2[C@H]2C(=O)C=C4[C@@]5(C)[C@H]6O[C@@]6(C#N)C(=O)[C@@](C)(O)[C@@H]5CC[C@@]4(C)[C@]2(C)CC3)n1"
Output line: 608 nM

Input line: Please supply the value of reported IC50 for the item "CC(=O)OC[C@]1(C)C(=O)C(C#N)=C[C@]2(C)C3=CC(=O)[C@@H]4[C@@H]5CC(C)(C)CC[C@]5(NC(=O)C(C)(F)F)CC[C@@]4(C)[C@]3(C)CC[C@H]21"
Output line: 141 nM

Continuing:
Input line: Provide measured IC50 value, entry: CC1(C)CC[C@]2(C(=O)NCC(F)(F)F)CC[C@]3(C)[C@H](C(=O)C=C4[C@@]5(C)C=C(C#N)C(=O)C(C)(C)[C@@H]5CC[C@]43C)[C@@H]2C1 [Comparison Compound #2, reference compound]
Output line: 104 nM
